- assay-summary: Agonist activity at monkey GHSR expressed in CHO cells incubated for 60 min by FLIPR assay
- Format: cell-based
- assay-context: Macaca mulatta, 1 h
readout-kind: log10 of EC50 (log10 of the value in nM)

compound: CC(C)(N)C(=O)N[C@H](COCc1ccccc1)C(=O)N1CCC2=NN(C(C)(C)C)C(=O)[C@]2(Cc2ccccc2)C1
log10 of EC50: -1.36
//
compound: CN1N=C2CCN(C(=O)[C@@H](COCc3ccccc3)NC(=O)C3CCNCC3)C[C@@]2(Cc2ccccc2)C1=O
log10 of EC50: 2.01
//
compound: CN1N=C2CCN(C(=O)[C@@H](COCc3ccccc3)NC(=O)C(C)(C)N)C[C@@]2(Cc2ccccc2)C1=O [CAPROMORELIN]
log10 of EC50: -1.13
//
compound: CC(C)(N)C(=O)N[C@H](COCc1ccccc1)C(=O)N1CCC2=NN(C3CC3)C(=O)[C@]2(Cc2ccccn2)C1
log10 of EC50: -1.17
//
compound: CC(C)(N)C(=O)N[C@H](COCc1ccccc1)C(=O)N1CCC2=NN(C3CC3)C(=O)[C@]2(Cc2ccccc2)C1
log10 of EC50: -1.34

----------
- assay-summary: Agonist activity at human GHSR expressed in CHO cells incubated for 60 min by FLIPR assay
- Assay type: cell-based
- assay-context: 1 h
pEC50: −log10 of the molar value.
compounds and their reported pEC50

structure-notation: CN1N=C2C(C)(C)CN(C(=O)[C@@H](COCc3ccccc3)NC(=O)C(C)(C)N)C[C@@]2(Cc2ccccc2)C1=O
modifier-sign: =
pEC50: 7.20

structure-notation: CC(C)(N)C(=O)N[C@H](COCc1ccccc1)C(=O)N1CCC2=NN(C3CCCC3)C(=O)[C@]2(Cc2ccccc2)C1
modifier-sign: =
pEC50: 9.24

structure-notation: CC(C)(N)C(=O)N[C@H](COCc1ccccc1)C(=O)N1CCC2=NN(C(F)F)C(=O)[C@]2(Cc2ccccc2)C1
modifier-sign: <
pEC50: 6.00

structure-notation: CC(C)(N)C(=O)N[C@H](COCc1ccccc1)C(=O)N1CCC2=NN(C3CC3)C(=O)[C@]2(Cc2ccccn2)C1
modifier-sign: =
pEC50: 9.10

structure-notation: CC(C)(N)C(=O)N[C@H](COCc1ccccc1)C(=O)N1CCC2=NN(CC3CC3)C(=O)[C@]2(Cc2ccccc2)C1
modifier-sign: =
pEC50: 9.05

structure-notation: CN1N=C2CCN(C(=O)[C@@H](COCc3ccccc3)NC(=O)C3CCNCC3)C[C@@]2(Cc2ccccc2)C1=O
modifier-sign: <
pEC50: 6.00

structure-notation: Cn1nc2c(c1-c1ccccc1)CN(C(=O)[C@@H](COCc1ccccc1)NC(=O)C(C)(C)N)CC2
modifier-sign: =
pEC50: 7.14

structure-notation: CC(C)(N)C(=O)N[C@H](COCc1ccccc1)C(=O)N1CCc2ccn(Cc3ccccc3)c2C1
modifier-sign: =
pEC50: 6.13

structure-notation: CC(C)(N)C(=O)N[C@H](COCc1ccccc1)C(=O)N1CC(C)(C)C2=NNC(=O)[C@]2(Cc2ccccc2)C1
modifier-sign: =
pEC50: 7.27

structure-notation: CC(C)(N)C(=O)N[C@H](COCc1ccccc1)C(=O)N1CCC2=NN(C(F)(F)F)C(=O)[C@]2(Cc2ccccc2)C1
modifier-sign: =
pEC50: 9.24

structure-notation: CN1N=C2C3(CC3)CN(C(=O)[C@@H](COCc3ccccc3)NC(=O)C(C)(C)N)C[C@@]2(Cc2ccccc2)C1=O
modifier-sign: =
pEC50: 7.53

structure-notation: CC(C)(N)C(=O)N[C@H](COCc1ccccc1)C(=O)N1CCC2=NN(C3CCC3)C(=O)[C@]2(Cc2ccccc2)C1
modifier-sign: =
pEC50: 8.92

structure-notation: CC(C)(N)C(=O)N[C@H](COCc1ccccc1)C(=O)N1CCC2=NOC(=O)[C@]2(Cc2ccccc2)C1
modifier-sign: =
pEC50: 9.06

structure-notation: CN1N=C2CCN(C(=O)[C@@H](COCc3ccccc3)NC(=O)C(C)(C)N)C[C@@]2(Cc2ccccc2)C1=O
modifier-sign: =
pEC50: 8.86
